- MEASURED TARGET: HLA-A*02:01 (Homo sapiens, UniProt P04439, D140Y/D185E/D98H/E176V/E277Q/G131W/G231S/I119V/I121R/I166T/I218V/L300P/L318F/N151K/N90K/P208A/P217A/Q86G/Q94H/R138H/R169H/T345S)
- MEASUREMENT NOTES: MHC binding assay (UV-ligand exchange, beta2m ELISA)
- ASSAY CONDITIONS: binding of HLA-class I restricted peptides to HLA-A*02:01, β2m ELISA
PROPERTY NAME: Peptide Exchange (MHC class I binding score, peptide exchange yield)

106 (FMASHLDYL; listed as Homo sapiens) [compound 106] ... “+++” (≥50 = +++)
302 (ILQDLTFVHL; listed as Homo sapiens) [compound 302] ... “+++” (≥50 = +++)
334 (YLLEEKIASL; listed as Homo sapiens) [compound 334] ... “+++” (≥50 = +++)
